Biological target: T1, human IL-11 (AAH12506.1, Pro22-Leu199) (human, UniProt P20809 22-199)
T1 construct: The range Pro22-Leu199 counts on AAH12506.1; The Octet runs say only 'human IL-11'; also called hIL-11
T1 chain: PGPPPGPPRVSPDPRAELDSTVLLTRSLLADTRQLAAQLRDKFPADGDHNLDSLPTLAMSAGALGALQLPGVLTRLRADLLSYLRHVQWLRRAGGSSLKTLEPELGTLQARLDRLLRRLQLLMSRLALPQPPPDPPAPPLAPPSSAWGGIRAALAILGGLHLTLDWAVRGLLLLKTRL
Experiment: BLI (Octet), antibody captured, human IL-11 in solution
Lab note - cut at 800000 M⁻¹ s⁻¹ for kon: condition met if strictly below, condition not met if not.

| BINDER | GROUP |
| --- | --- |
| hz8C8-VHm1-m4 + hz8C8-VLm7-m2 (antibody, human IgG1, kappa, V domains shown, human IgG1 constant regions) VH: EVQLVESGGGLVQPGGSLRLSCAASGFTFSSFGMHWVRQAPGKGLEWVSYITPGSNTIYYADTVKGRFTISRDNAKNSLYLQMNSLRAEDTAVYYCAREYYSYDEGFAYWGQGTLVTVSS VL: EIVLTQSPATLSLSPGERATLSCSVSDLIPSQYLHWYQQKPGQAPRLLIYDASNLASGIPARFSGSGSGTDFTLTISSLEPEDFAVYYCQQGVDVPFTFGQGTKLEIKR | condition not met |
| hz8C8-VHm1 + hz8C8-VL (antibody, human IgG1, kappa, V domains shown, human IgG1 constant regions) VH: EVQLVESGGGLVQPGGSLRLSCAASGFTFSSFGMHWVRQAPGKGLEWVAYITPGSNTIYYADTVKGRFTISRDNAKNSLYLQMNSLRAEDTAVYYCAREYYSYDEGFAYWGQGTLVTVSS VL: EIVLTQSPATLSLSPGERATLSCSVSSSISSNYLHWYQQKPGQAPRLLIYRTSNLASGIPARFSGSGSGTDFTLTISSLEPEDFAVYYCQQGVDVPFTFGQGTKLEIKR | condition met |
| hz8C8-VHm1-m10 + hz8C8-VLm7-m2 (antibody, human IgG1, kappa, V domains shown, human IgG1 constant regions) VH: EVQLVESGGGLVQPGGSLRLSCAASGFTFSSFGMHWVRQAPGKGLEWVAYITPGSNTIYYADTVKGRFTISRDNAKNSLYLQMNSLRAEDTAVYYCAREYYSSDEGFAYWGQGTLVTVSS VL: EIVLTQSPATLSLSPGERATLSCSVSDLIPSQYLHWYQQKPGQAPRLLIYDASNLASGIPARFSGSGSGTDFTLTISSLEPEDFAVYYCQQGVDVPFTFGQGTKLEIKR | condition met |
| hz8C8-VHm1 + hz8C8-VLm5 (antibody, human IgG1, kappa, V domains shown, human IgG1 constant regions) VH: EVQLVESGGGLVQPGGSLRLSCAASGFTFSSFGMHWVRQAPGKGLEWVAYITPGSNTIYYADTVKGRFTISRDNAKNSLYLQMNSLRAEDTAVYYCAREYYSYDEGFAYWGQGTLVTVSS VL: EIVLTQSPATLSLSPGERATLSCSVSELLSTNYLHWYQQKPGQAPRLLIYRTSNLASGIPARFSGSGSGTDFTLTISSLEPEDFAVYYCQQGVDVPFTFGQGTKLEIKR | condition not met |
